The reader will find reported self-cleavage values listed item by item below.
B1: LINE1-mini (parent)
chain: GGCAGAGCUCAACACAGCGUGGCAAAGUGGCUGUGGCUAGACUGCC

- Variants of: B1
- Procedure Summary: self-cleavage, relative activity (ratio to wild type); higher = more cleavage; in vitro, sequencing; the parent is a self-cleaving ribozyme
Please respond with just the number, no unit label.

Study these solved cases before continuing.
C31U G44A | 0.04
C3G C42G | 0.05
G1C A14U | 0.02

Moving on to the next variant.
Measured self-cleavage of G2U A39C : 0.03
